What IC50 was measured for each of the following?
Target: Proto-oncogene tyrosine-protein kinase Src (Homo sapiens, UniProt P12931)
Sequence (P12931 2-536 limits assumed): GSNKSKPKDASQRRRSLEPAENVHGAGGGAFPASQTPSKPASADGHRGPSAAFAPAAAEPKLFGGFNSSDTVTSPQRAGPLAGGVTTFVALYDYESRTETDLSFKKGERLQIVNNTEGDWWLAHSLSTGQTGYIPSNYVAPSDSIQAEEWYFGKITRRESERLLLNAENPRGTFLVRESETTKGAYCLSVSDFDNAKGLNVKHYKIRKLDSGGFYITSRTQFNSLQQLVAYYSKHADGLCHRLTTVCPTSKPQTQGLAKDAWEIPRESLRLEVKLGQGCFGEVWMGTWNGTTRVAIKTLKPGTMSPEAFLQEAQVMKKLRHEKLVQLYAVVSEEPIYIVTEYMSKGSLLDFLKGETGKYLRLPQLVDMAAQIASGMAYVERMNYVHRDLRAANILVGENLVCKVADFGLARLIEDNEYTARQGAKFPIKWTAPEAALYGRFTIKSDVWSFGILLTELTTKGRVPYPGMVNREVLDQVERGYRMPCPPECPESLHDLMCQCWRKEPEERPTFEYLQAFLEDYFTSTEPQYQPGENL

Provide IC50 values for the following items, in order.
1. Cc1ccc(-c2nn(-c3cccc(C(=O)NCCCP(=O)(O)CP(=O)(O)O)c3)c3ncnc(N)c23)cc1
2. Nc1ncnc2c1c(-c1cccc(O)c1)cn2-c1ccc(CCOP(=O)(O)CP(=O)(O)O)cc1
3. COc1cccc(-c2cn(-c3cccc(C(=O)O)c3)c3ncnc(N)c23)c1
4. Cc1ccc(-c2nn(-c3cccc(C(=O)NCc4ccc(P(=O)(O)O)c(P(=O)(O)O)c4)c3)c3ncnc(N)c23)cc1
5. COc1cccc(-c2cn(-c3ccc(C(=O)Nc4ccc(P(=O)(O)O)c(P(=O)(O)O)c4)cc3)c3ncnc(N)c23)c1

Result block:
["400 nM", "60 nM", "4000 nM", "320 nM", "870 nM"]

Provide IC50 values for the following items, in order.
1. COc1cccc(-c2cn(-c3ccc(C(=O)Nc4ccc(C(P(=O)(O)O)P(=O)(O)O)cc4)cc3)c3ncnc(N)c23)c1
2. COc1cccc(-c2nn(-c3cccc(P(=O)(O)CC(=O)O)c3)c3ncnc(N)c23)c1
3. Nc1ncnc2c1c(-c1cccc(O)c1)nn2-c1cccc(P(=O)(O)CC(=O)O)c1

Result block:
1. 40000 nM
2. 1600 nM
3. 20 nM

###

What follows is a record of pIC50 for Proto-oncogene tyrosine-protein kinase Src (Homo sapiens, UniProt P12931).
Numbers only, as −log10 of the molar value.

See these solved cases before continuing.
>>> numeric_value("CN(CCOP(=O)(O)CP(=O)(O)O)CCc1ccc(-n2cc(-c3cccc(O)c3)c3c(N)ncnc32)cc1")
8.40
>>> numeric_value("Nc1ncnc2c1c(-c1cccc(O)c1)cn2-c1ccc(CCO)cc1")
7.40
>>> numeric_value("COc1cccc(-c2cn(-c3cccc(C(=O)NCCCP(=O)(O)CP(=O)(O)O)c3)c3ncnc(N)c23)c1")
6.44

Query block: Fill in pIC50 for record `COc1cccc(-c2cn(-c3cccc(C(=O)Nc4ccc(C(P(=O)(O)O)P(=O)(O)O)cc4)c3)c3ncnc(N)c23)c1`
Result block: 4.72

Source: ChEMBL document CHEMBL1136208
